- target: T1, Human BCMA (B Cell Maturation Antigen) (human, UniProt Q02223 1-184)
- T1 sequence: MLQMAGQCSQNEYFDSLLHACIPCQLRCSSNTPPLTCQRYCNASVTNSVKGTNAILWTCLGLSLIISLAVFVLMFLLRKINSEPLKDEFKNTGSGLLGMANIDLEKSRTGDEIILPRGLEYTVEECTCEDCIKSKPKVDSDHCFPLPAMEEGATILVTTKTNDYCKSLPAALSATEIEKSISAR
- procedure-details: cell-based or functional assay
measurement-type: EC50 of cell viability (Cell Titer-Glo), NCI-H929 (BCMA+) cells (nM)
Give the number; nM is assumed, so skip it.

binder	assay-value
anti-BCMA-AB2-Compound 4 (antibody, V domains shown, drug-linker Compound 4 on antibody cysteine thiols (positions not stated)) VH: EVQLVESGGGLVKPGGSLRLSCAASGFTSSTAWMSWVRQAPGKGLEWVGRIKSKSDGGTTDYAAPVKGRFTISRDDSKNTLFLQMNSLKTEDTAVYYCAKGGGTYGYWGQGTTVTVSS VL: QSALTQPASVSGSPGQSVTISCTGTSSDGGGHTYVSWYQQHPGKAPKLMIYDVSNRPSWVSNRFSGSKSGNTASLTISGLQAEDEADYYCGSYTSSGSYVFGTGTKLTVL	59

Q: Quick check: EC50 of cell viability (Cell Titer-Glo), NCI-H929 (BCMA+) cells of anti-BCMA-AB2-Compound 8 (antibody, V domains shown, drug-linker Compound 8 on antibody cysteine thiols (positions not stated)) VH: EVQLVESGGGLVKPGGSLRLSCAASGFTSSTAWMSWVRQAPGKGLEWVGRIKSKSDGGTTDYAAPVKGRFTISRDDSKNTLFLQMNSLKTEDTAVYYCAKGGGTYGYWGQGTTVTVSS VL: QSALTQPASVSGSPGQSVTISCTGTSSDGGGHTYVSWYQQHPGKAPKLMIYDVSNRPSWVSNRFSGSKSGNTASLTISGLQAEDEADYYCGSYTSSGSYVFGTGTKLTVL ?
Ans: 29.7

Q: Quick check: EC50 of cell viability (Cell Titer-Glo), NCI-H929 (BCMA+) cells of anti-BCMA-AB2-Compound 5 (antibody, V domains shown, drug-linker Compound 5 on antibody cysteine thiols (positions not stated)) VH: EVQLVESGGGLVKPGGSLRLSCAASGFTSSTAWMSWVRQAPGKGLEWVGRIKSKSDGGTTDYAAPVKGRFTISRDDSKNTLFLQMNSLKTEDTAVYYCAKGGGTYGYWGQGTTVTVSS VL: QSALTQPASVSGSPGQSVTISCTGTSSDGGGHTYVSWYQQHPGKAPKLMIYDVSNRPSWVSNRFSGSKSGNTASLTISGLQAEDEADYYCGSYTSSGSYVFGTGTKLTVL ?
Ans: 10

Q: Quick check: EC50 of cell viability (Cell Titer-Glo), NCI-H929 (BCMA+) cells of anti-BCMA-AB2-Compound 6 (antibody, V domains shown, drug-linker Compound 6 on antibody cysteine thiols (positions not stated)) VH: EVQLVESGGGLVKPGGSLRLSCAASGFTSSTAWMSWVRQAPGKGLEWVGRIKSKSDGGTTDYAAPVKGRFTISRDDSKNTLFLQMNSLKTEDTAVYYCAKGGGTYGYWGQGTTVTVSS VL: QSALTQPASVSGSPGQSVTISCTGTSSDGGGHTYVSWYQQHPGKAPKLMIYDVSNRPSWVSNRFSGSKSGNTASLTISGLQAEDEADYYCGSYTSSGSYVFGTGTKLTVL ?
Ans: 9.44
